The values you see were collected from patent US6858210B1.

The reader will find reported Max (maximum inhibition observed at concentrations tested) values listed item by item below.
Tested on: affinity purified β2GPI-dependent antiphospholipid antibody
Test: Competitive inhibition ELISA: recombinant β2GPI proteins compete for antibody binding to coated full length recombinant β2GPI
Design: species or system human
Details: Ab 7015
Quote the value and follow it with the unit of measurement.

Known results for molecules:
[
  {
    "MOLECULE": "12---: recombinant β2GPI deletion mutant with domains 1 and 2 (protein) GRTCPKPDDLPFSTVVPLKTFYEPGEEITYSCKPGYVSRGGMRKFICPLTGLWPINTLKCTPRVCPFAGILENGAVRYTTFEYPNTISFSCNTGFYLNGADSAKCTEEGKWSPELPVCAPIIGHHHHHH",
    "VALUE_REPORTED": "30%"
  },
  {
    "MOLECULE": "123--: recombinant β2GPI deletion mutant with domains 1, 2, 3 (protein) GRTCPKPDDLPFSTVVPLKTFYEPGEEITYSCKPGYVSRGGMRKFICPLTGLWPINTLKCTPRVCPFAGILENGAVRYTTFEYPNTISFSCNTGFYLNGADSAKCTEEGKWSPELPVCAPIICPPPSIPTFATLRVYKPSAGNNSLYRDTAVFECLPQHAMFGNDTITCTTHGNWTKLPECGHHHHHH",
    "VALUE_REPORTED": "90%"
  }
]

[ask] Recorded Max (maximum inhibition observed at concentrations tested) for --345: recombinant β2GPI deletion mutant with domains 3, 4, 5 (protein) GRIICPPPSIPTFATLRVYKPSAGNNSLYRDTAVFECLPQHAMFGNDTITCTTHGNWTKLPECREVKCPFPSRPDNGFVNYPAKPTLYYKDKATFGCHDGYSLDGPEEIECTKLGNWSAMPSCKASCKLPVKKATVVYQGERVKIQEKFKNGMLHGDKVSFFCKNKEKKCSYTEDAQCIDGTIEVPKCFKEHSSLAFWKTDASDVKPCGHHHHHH , please?
[reply] 10%
